# System Tested: Dopamine beta-hydroxylase (Bos taurus)
# Sequence (P15101 whole entry): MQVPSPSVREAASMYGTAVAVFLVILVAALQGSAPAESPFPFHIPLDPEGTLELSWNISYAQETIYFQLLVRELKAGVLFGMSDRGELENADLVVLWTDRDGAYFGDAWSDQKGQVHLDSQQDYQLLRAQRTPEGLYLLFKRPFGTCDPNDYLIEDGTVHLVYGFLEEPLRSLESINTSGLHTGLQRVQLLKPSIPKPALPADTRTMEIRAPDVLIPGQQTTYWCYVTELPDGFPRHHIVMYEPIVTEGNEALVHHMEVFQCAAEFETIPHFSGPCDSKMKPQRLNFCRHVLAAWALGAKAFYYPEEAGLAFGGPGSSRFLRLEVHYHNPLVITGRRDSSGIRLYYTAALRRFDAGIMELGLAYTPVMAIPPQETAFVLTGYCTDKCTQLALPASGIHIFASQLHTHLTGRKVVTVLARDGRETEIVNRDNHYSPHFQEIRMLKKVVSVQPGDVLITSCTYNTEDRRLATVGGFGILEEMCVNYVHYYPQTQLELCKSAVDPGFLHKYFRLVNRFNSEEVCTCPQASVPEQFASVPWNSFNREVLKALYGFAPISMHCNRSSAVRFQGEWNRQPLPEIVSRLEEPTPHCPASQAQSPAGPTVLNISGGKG
# Test Protocol: Binding affinity towards Dopamine beta hydroxylase using tyramine substrate at pH 4.5 in the absence of fumarate
Parameter: pKi
pKi here: minus log base 10 of the concentration, concentration in moles per litre.

For the molecule shown here, CCCCc1ccc(C(=O)O)nc1 [FUSARIC ACID] , give the reported pKi.
6.83

I am curious: what pKi value has been reported for `Oc1c(F)cc(Cn2cc[nH]c2=S)cc1F` ?
8.24

Record request: pKi value, item `Fc1cc(F)cc(Cn2cc[nH]c2=S)c1`
7.39

Reference source: ChEMBL document CHEMBL1123285
